# Tested on: PC-3 Cells
# Test Details: Cell growth inhibition, Cell-Titer-Glo, 96 hours;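 also: luciferase luminescence reflecting cellular ATP, used as a proxy for cell number, with compound-treated cells compared against DMSO vehicle control wells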
# Assay type: cell-based
# Condition Label: Homo sapiens, Table IX (results), read-out: IC50 (PC-3)
pIC50: −log10 of the molar value.
Decision: pIC50 >= 5 yields yes (1), all other cases yield no (0).

compound="CN1CCC(COc2ccc3ncc(-c4cccc(OC(F)(F)F)c4)n3n2)CC1 [Compound 7-33]" classification="no (0)"

Ask: Has CCC(CO)Nc1ccc2ncc(-c3ccc(N(C)C)cc3)n2n1 (stereo not drawn) [Compound 7-1] a recorded pIC50 greater than or equal to 5?
Result: no (0)

Ask: Has Fc1cccc(-c2cnc3ccc(NC4CCCC4)nn23)c1 [Compound 7-15] a recorded pIC50 greater than or equal to 5?
Result: no (0)

Ask: Has CCN1CCC(CNc2ccc3ncc(-c4cccc(OC(F)(F)F)c4)n3n2)CC1 [Compound 7-39] a recorded pIC50 greater than or equal to 5?
Result: yes (1)

Ask: Has CCN1CCC(CNc2nn3c(-c4cccc(OC(F)(F)F)c4)cnc3cc2C)CC1 [Compound 7-38] a recorded pIC50 greater than or equal to 5?
Result: yes (1)

Ask: Has CN1CCC(CCNc2ccc3ncc(-c4cc(OC(F)(F)F)ccc4O)n3n2)CC1 [Compound 7-45] a recorded pIC50 greater than or equal to 5?
Result: no (0)
